measurement notes: in vitro
run conditions: human, Caco-2
// reported Papp A→B per item
measured attribute: Papp A→B (×10⁻⁶ cm/s)

test smiles: CN(C)S(=O)(=O)n1cc(-c2nc(-c3nc(C4(c5ccccc5)CC4)n(C)n3)cnc2N)cn1
measured attribute: Papp A→B
value unit: ×10⁻⁶ cm/s
measured value: 19
//
test smiles: Cn1nc(-c2cnc(N)c(-c3ccc(C(N)=O)cc3)n2)nc1C1(c2ccccc2)CC1
measured attribute: Papp A→B
value unit: ×10⁻⁶ cm/s
measured value: 2
//
test smiles: Cn1nc(-c2cnc(N)c(-c3nnc(C(C)(C)C)o3)n2)nc1C1(c2ccccc2)CC1
measured attribute: Papp A→B
value unit: ×10⁻⁶ cm/s
measured value: 24
//
test smiles: Cn1nc(-c2cnc(N)c(-c3cn[nH]c3)n2)nc1C1(c2ccccc2)CC1
measured attribute: Papp A→B
value unit: ×10⁻⁶ cm/s
measured value: 6.6
//
test smiles: Cn1nc(-c2cnc(N)c(-c3ccc(C(N)=O)c(F)c3)n2)nc1C1(c2ccccc2)CC1
measured attribute: Papp A→B
value unit: ×10⁻⁶ cm/s
measured value: 13

---

measurement notes: in vitro
run conditions: human, liver microsomes
// reported microsomal CLint per item
measured attribute: microsomal CLint

test smiles: CN(C)S(=O)(=O)n1cc(-c2nc(-c3nc(C4(c5ccccc5)CC4)n(C)n3)cnc2N)cn1
measured attribute: microsomal CLint
measured value: 191 µL/min/mg
--
test smiles: Cn1nc(-c2cnc(N)c(-c3ccc(C(N)=O)c(F)c3)n2)nc1C1(c2ccccc2)CC1
measured attribute: microsomal CLint
measured value: < 3 µL/min/mg
--
test smiles: Cn1nc(-c2cnc(N)c(-c3nnc(C(C)(C)C)o3)n2)nc1C1(c2ccccc2)CC1
measured attribute: microsomal CLint
measured value: 20 µL/min/mg
--
test smiles: Cn1nc(-c2cnc(N)c(-c3ccc(C(N)=O)cc3)n2)nc1C1(c2ccccc2)CC1
measured attribute: microsomal CLint
measured value: < 3 µL/min/mg
--
test smiles: Cn1nc(-c2cnc(N)c(-c3cn[nH]c3)n2)nc1C1(c2ccccc2)CC1
measured attribute: microsomal CLint
measured value: < 3 µL/min/mg

---

measurement notes: Volume of distribution at steady state in iv dosed rat
Assay type: ADME, organism-based
run conditions: in vivo, read-out: Vdss

test smiles: Cn1nc(-c2cnc(N)c(-c3ccc(C(N)=O)c(F)c3)n2)nc1C1(c2ccccc2)CC1
Vd: 2.8 L/kg

---

// reported solubility per item
measurement notes: Solubility of the compound
Assay type: physicochemical

test smiles: Cn1nc(-c2cnc(N)c(-c3ccc(C(N)=O)c(F)c3)n2)nc1C1(c2ccccc2)CC1
value unit: µM
solubility: 32

test smiles: Cn1nc(-c2cnc(N)c(-c3ccc(C(N)=O)cc3)n2)nc1C1(c2ccccc2)CC1
value unit: µM
solubility: 177

test smiles: Cn1nc(-c2cnc(N)c(-c3cn[nH]c3)n2)nc1C1(c2ccccc2)CC1
value unit: µM
solubility: 37

test smiles: Cn1nc(-c2cnc(N)c(-c3nnc(C(C)(C)C)o3)n2)nc1C1(c2ccccc2)CC1
value unit: µM
solubility: 3

test smiles: CN(C)S(=O)(=O)n1cc(-c2nc(-c3nc(C4(c5ccccc5)CC4)n(C)n3)cnc2N)cn1
value unit: µM
solubility: 11

---

measurement notes: Lipophilicity, log D of the compound
Assay type: physicochemical
run conditions: octanol/water
Kind request: treat 3 as inclusive, so logD at 3 or higher is T, anything lower is F.

test smiles: Cn1nc(-c2cnc(N)c(-n3nnc4ccccc43)n2)nc1C1(c2ccccc2)CC1
class name: T
--
test smiles: Cn1nc(-c2cnc(N)c(-n3ccc(C(N)=O)n3)n2)nc1C1(c2ccccc2)CC1
class name: F
--
test smiles: Cn1nc(-c2cnc(N)c(-c3ccc(C(N)=O)cc3)n2)nc1C1(c2ccccc2)CC1
class name: F
--
test smiles: Cn1nc(-c2cnc(N)c(-c3nnc(C(C)(C)C)o3)n2)nc1C1(c2ccccc2)CC1
class name: T
--
test smiles: Cn1nc(-c2cnc(N)cn2)nc1C1(c2ccccc2)CC1
class name: F

---

// reported logD per item
measurement notes: Lipophilicity, log D of the compound
Assay type: physicochemical
run conditions: octanol/water
measured attribute: logD

test smiles: Cn1nc(-c2cnc(N)c(C#N)n2)nc1C1(c2ccccc2)CC1
measured value: 2.2
//
test smiles: Cn1nc(-c2cnc(N)c(-c3ccc(C(N)=O)c(F)c3)n2)nc1C1(c2ccccc2)CC1
measured value: 2.2
//
test smiles: Cn1nc(-c2cnc(N)c(-c3cnn(C(N)=O)c3)n2)nc1C1(c2ccccc2)CC1
measured value: 2.2
//
test smiles: Cn1nc(-c2cnc(N)c(-c3ccc(F)nc3)n2)nc1C1(c2ccccc2)CC1
measured value: 2.5
//
test smiles: Cn1nc(-c2cnc(N)c(-n3cc(C(N)=O)cn3)n2)nc1C1(c2ccccc2)CC1
measured value: 2.8
//
test smiles: CN(C)S(=O)(=O)n1cc(-c2nc(-c3nc(C4(c5ccccc5)CC4)n(C)n3)cnc2N)cn1
measured value: 2.8
//
test smiles: Cn1nc(-c2cnc(N)c(-c3cn[nH]c3)n2)nc1C1(c2ccccc2)CC1
measured value: 2.1
//
test smiles: Cn1nc(-c2cnc(N)c(-c3ccc(N)nc3)n2)nc1C1(c2ccccc2)CC1
measured value: 2
//
test smiles: Cc1n[nH]c(C)c1-c1nc(-c2nc(C3(c4ccccc4)CC3)n(C)n2)cnc1N
measured value: 2.3

---

measurement notes: Oral bioavailability in rat
Format: ADME, organism-based
run conditions: in vivo

test smiles: Cn1nc(-c2cnc(N)c(-c3ccc(C(N)=O)c(F)c3)n2)nc1C1(c2ccccc2)CC1
bioavailability [%]: 41

---

measurement notes: Intrinsic clearance in rat hepatocytes assessed per million cells
Type: ADME, cell-based, Hepatocyte
run conditions: read-out: CLH
measured attribute: hepatocyte CLint

test smiles: Cn1nc(-c2cnc(N)c(-c3cn[nH]c3)n2)nc1C1(c2ccccc2)CC1
measured value: 5 µL/min/1e6 cells

test smiles: CN(C)S(=O)(=O)n1cc(-c2nc(-c3nc(C4(c5ccccc5)CC4)n(C)n3)cnc2N)cn1
measured value: 157 µL/min/1e6 cells

test smiles: Cn1nc(-c2cnc(N)c(-c3nnc(C(C)(C)C)o3)n2)nc1C1(c2ccccc2)CC1
measured value: 12 µL/min/1e6 cells

test smiles: Cn1nc(-c2cnc(N)c(-c3ccc(C(N)=O)c(F)c3)n2)nc1C1(c2ccccc2)CC1
measured value: < 1 µL/min/1e6 cells

test smiles: Cn1nc(-c2cnc(N)c(-c3ccc(C(N)=O)cc3)n2)nc1C1(c2ccccc2)CC1
measured value: 2 µL/min/1e6 cells
